Measured values drawn from ChEMBL document CHEMBL4831486 for this set.

- System: HepG2
- protocol_notes: Cytotoxicity against human HepG2 cells assessed as reduced cell viability at 4 ug/ml measured after 16 hrs by MTT assay
- Assay type: cell-based
- test_context: hepg2, 16 h, dose 4 µg/ml
measurement_type: Activity

>  <molecular_string>
C=C[C@]1(C)C[C@@H](OC(=O)CSc2nnc(C)n2/N=C/c2cccc(C(F)(F)F)c2)[C@]2(C)[C@H](C)CC[C@]3(CCC(=O)[C@H]32)[C@@H](C)[C@@H]1O

>  <experimental_target>
HepG2

>  <measurement_type>
Activity

>  <result>
Non-Toxic

$$$$
>  <molecular_string>
C=C[C@]1(C)C[C@@H](OC(=O)CSc2nnc(C)n2/N=C/c2ccccc2[N+](=O)[O-])[C@]2(C)[C@H](C)CC[C@]3(CCC(=O)[C@H]32)[C@@H](C)[C@@H]1O

>  <experimental_target>
HepG2

>  <measurement_type>
Activity

>  <result>
Non-Toxic

$$$$
>  <molecular_string>
C=C[C@]1(C)C[C@@H](OC(=O)CSc2nnc(C)n2/N=C/c2cccc([N+](=O)[O-])c2)[C@]2(C)[C@H](C)CC[C@]3(CCC(=O)[C@H]32)[C@@H](C)[C@@H]1O

>  <experimental_target>
HepG2

>  <measurement_type>
Activity

>  <result>
Non-Toxic

$$$$
